Where do the numbers come from? From patent US20230331840A1.

- TARGET ENTITY: Human CD22 extracellular segment conjugated His label (human, UniProt P20273 20-687)
- ASSAY METHOD TEXT: BLI (Fortebio)
Exercise: state measured Kd for each of the binders provided.
Quick note: unit goes after the number.

Name the recorded Kd of the item CD22 antibody FC2-117 (antibody, V domains shown) VH: DVQLQESGPGLVKPSQSLSLTCSVTGYSITSGYYWNWIRQFPGNKLEWMGYISYDGSNNYNPSLKNRISITRDTSKNQFFLKLNSVTTEDTATYYCTKGGYGYYFDYWGQGTTLTVSS VL: DIQMTQSPASLSASVGETVTITCRASGNIHNYLAWYQQKQGKSPQLLVYNAKTLADGVPSRFSGSGSGTQYSLKINSLQPEDFGSYYCQHFWSTPPTFGGGTKLEIKR in your answer.
2.73 nM

Name the recorded Kd of the item CD22 antibody FC2-070 (antibody, V domains shown) VH: QVQLQQPGAELVKPGTSVKLSCKASGYNFTSYWINWVKLRPGQGLEWIGDIYPGSGNTNYNEKFKSKATLTVDTSSTTAYMQLSSLASEDSALYYCARRGYLDYWGQGTTLTVSS VL: DIQMTQSPASLSASVGETVTITCRASGNIHNYLAWYQQKQGKSPQLLVYNAKTLADGVPSRFSGSGSGTQYSLTINSLQPEDFGSYYCQHFWSTPLTFGAGTKLELKR in your answer.
0.569 nM

Name the recorded Kd of the item CD22 antibody FC2-201 (antibody, V domains shown) VH: KVQLQQSGAGLVKPGASVKLSCKASGYTFTDSILHWLMQRSGQGLEWIGWFYPGSGSIKYNEKFKDKATLTADKSSSTVYMELSRLTSEDSAFYFCARHEDGYDGFAYWGQGTLVTVSA VL: ENVLTQSPAIMSASLGEKVTMSCRASSSVNYIFWYQQKSDASPKLWIYYTSNLAPGVPARFSGSGSGNSYSLTISSMEGEDAATYYCQQFTSSPFTFGSGTKLEIKR in your answer.
0.0722 nM

Name the recorded Kd of the item CD22 antibody FC2-153 (antibody, V domains shown) VH: QVQLQQSGAELMKPGASVKISCKATGYTFSSYWIEWVKQRPGHGLEWIGEILPGSGSTNYNEKFKGKATFTADTSSNTAYMQLSSLTSEDSAVYYCARWGQLGLFYAMDYWGQGTSVTVSS VL: DIQMTQSPASLSASVGETVTITCRASENIYSYLAWYQQKQGKSPQLLVYNAKTLAEGVPSRFSGSGSGTQFSLKINSLQPEDFGSYYCQHHYGSPLTFGAGTKLELKR in your answer.
0.92 nM

Name the recorded Kd of the item CD22 antibody FC2-203 (antibody, V domains shown) VH: QVQLQQPGAELVRPGASVKLSCKASGYTFSSYWINWVKQRPGQGLEWIGNIYPSDSYTNYNQKFKDKATLTVDKSSSTAYMQLSSPTSEDSAVYYCTREGHYYGSFGAMDYWGQGTSVTVSS VL: DVQITQSPSYLAASPGETITINCRASKTISKYLAWYQEKPGKTNKLLIYSGSTLQSGIPSRFSGSGSGTDFTLTISSLEPEDFAMYYCQQHNEYPWTFGGGTKLEIKR in your answer.
7.08 nM
